- test system: recombinant guanylate cyclase reporter cell line (Rattus norvegicus, UniProt P19686+P20595)
- Construct: expressed in transfected cells
- Sequence (P20595 whole entry): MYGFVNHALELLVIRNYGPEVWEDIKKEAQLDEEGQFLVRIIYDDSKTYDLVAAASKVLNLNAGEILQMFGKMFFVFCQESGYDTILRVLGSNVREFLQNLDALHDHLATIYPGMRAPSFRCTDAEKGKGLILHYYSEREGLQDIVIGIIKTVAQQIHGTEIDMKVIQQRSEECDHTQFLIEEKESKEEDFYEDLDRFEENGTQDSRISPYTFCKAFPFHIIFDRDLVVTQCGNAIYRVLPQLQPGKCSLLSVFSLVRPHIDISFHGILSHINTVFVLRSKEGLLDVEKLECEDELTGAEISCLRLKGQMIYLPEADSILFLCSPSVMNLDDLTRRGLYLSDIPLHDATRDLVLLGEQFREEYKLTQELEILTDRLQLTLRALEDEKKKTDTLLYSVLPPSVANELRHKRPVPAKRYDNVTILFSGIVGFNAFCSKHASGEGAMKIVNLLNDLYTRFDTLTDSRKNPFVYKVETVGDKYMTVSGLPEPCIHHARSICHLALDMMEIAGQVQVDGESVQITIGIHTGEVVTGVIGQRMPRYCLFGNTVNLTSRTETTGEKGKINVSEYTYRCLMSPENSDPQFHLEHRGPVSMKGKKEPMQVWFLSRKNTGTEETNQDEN
- Sequence (P19686 whole entry): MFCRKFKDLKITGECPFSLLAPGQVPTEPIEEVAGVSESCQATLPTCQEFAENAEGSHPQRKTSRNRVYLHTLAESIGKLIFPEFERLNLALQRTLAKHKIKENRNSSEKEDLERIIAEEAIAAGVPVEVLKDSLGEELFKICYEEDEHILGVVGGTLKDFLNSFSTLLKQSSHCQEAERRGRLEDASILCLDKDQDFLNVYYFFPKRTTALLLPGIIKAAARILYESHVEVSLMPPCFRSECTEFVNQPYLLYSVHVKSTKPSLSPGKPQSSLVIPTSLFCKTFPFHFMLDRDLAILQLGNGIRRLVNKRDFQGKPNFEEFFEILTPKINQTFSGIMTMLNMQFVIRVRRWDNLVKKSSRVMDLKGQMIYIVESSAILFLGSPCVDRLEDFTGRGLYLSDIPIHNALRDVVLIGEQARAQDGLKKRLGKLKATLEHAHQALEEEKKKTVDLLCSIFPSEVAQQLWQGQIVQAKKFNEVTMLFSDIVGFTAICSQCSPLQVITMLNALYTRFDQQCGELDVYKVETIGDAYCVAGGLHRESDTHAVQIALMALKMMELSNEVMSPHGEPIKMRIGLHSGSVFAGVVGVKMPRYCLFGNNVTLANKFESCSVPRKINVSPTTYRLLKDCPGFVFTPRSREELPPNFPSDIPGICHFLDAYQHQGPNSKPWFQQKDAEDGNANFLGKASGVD
- assay overview: Action on recombinant guanylate cyclase reporter cell line
- Type: cell-based
measured parameter: MEC (minimal effective concentration)

[
  {
    "compound": "CC(C)CCNc1nc(-c2nn(Cc3ccccc3F)c3ncccc23)nc2c1C(C)(C)C(=O)N2 [Example 63]",
    "endpoint value": "0.03 μm"
  },
  {
    "compound": "CC1(C)C(=O)Nc2nc(-c3nn(Cc4ccccc4F)c4ncc(F)cc34)nc(NCC3CC3(C)C)c21 (centres unmarked) [Example 99]",
    "endpoint value": "0.3 μm"
  },
  {
    "compound": "CCOCCCNc1nc(-c2nn(Cc3ccccc3F)c3ncccc23)nc2c1C(C)(C)C(=O)N2 [Example 71]",
    "endpoint value": "0.01 μm"
  },
  {
    "compound": "Cn1ccc(CNc2nc(-c3nn(Cc4ccccc4F)c4ncccc34)nc3c2C(C)(C)C(=O)N3)n1 [Example 48]",
    "endpoint value": "0.1 μm"
  },
  {
    "compound": "CC1(C)C(=O)Nc2nc(-c3nn(Cc4ccccc4F)c4ncccc34)nc(NCc3ccccn3)c21 [Example 55]",
    "endpoint value": "0.03 μm"
  },
  {
    "compound": "CC1(C)C(=O)Nc2nc(-c3nn(Cc4ccccc4F)c4ncccc34)nc(NCCn3cccn3)c21 [Example 58]",
    "endpoint value": "0.03 μm"
  },
  {
    "compound": "CC1(C)C(=O)Nc2nc(-c3nn(Cc4ccccc4F)c4ncccc34)nc(Nc3ccncc3)c21 [Example 69]",
    "endpoint value": "0.3 μm"
  },
  {
    "compound": "CC1(C)C(=O)Nc2nc(-c3nn(Cc4ccccc4F)c4ncc(F)cc34)nc(NCCO)c21 [Example 2]",
    "endpoint value": "0.3 μm"
  }
]

----------
MEC (minimal effective concentration) values, listed per item
- test system: recombinant guanylate cyclase reporter cell line (Rattus norvegicus, UniProt P19686+P20595)
- Construct: expressed in transfected cells
- assay overview: Action on recombinant guanylate cyclase reporter cell line
- Format: cell-based
measured parameter: MEC (minimal effective concentration) (μm)

[
  {
    "compound": "CC1(C)C(=O)Nc2nc(-c3nn(Cc4ccccc4F)c4ncccc34)nc(N3CCC(N)C3)c21 (racemic) [Example 106]",
    "measured parameter": "MEC (minimal effective concentration)",
    "endpoint value": 1
  },
  {
    "compound": "CC1(C)C(=O)Nc2nc(-c3nn(Cc4ccccc4F)c4ncccc34)nc(N3CC(C(F)(F)F)CCC3=O)c21 (stereo not shown) [Example 91]",
    "measured parameter": "MEC (minimal effective concentration)",
    "endpoint value": 0.03
  },
  {
    "compound": "CC1(C)C(=O)Nc2nc(-c3nn(Cc4cccc(F)c4F)c4ncc(F)cc34)nc(O)c21 [Example 116]",
    "measured parameter": "MEC (minimal effective concentration)",
    "endpoint value": 0.03
  },
  {
    "compound": "CC1C(=O)NCCN1c1nc(-c2nn(Cc3ccccc3F)c3ncccc23)nc2c1C(C)(C)C(=O)N2 (stereo not shown) [Example 92]",
    "measured parameter": "MEC (minimal effective concentration)",
    "endpoint value": 0.3
  },
  {
    "compound": "CC1(C)C(=O)Nc2nc(-c3nn(Cc4ccccc4F)c4ncc(F)cc34)nc(NCC3(O)CC3)c21 [Example 98]",
    "measured parameter": "MEC (minimal effective concentration)",
    "endpoint value": 0.01
  },
  {
    "compound": "C[C@H](Nc1nc(-c2nn(Cc3ccccc3F)c3ncc(F)cc23)nc2c1C(C)(C)C(=O)N2)C1CC1 [Example 89]",
    "measured parameter": "MEC (minimal effective concentration)",
    "endpoint value": 0.03
  },
  {
    "compound": "CC1(C)C(=O)Nc2nc(-c3nn(Cc4ccccc4F)c4ncc(F)cc34)nc(NCC(O)C(F)(F)F)c21 (single isomer, unassigned) [Example 96-2]",
    "measured parameter": "MEC (minimal effective concentration)",
    "endpoint value": 0.01
  }
]
